Provenance of the data: ChEMBL document CHEMBL3351472

Tested on: Rattus norvegicus
Experiment: Effect on bone calcium mobilization in weanling Sprague-Dawley rat assessed as serum calcium level at 780 pmol/day, ip administered as 4 consecutive daily doses measured 24 hrs after last dose (reference value: 4.2 to 4.9 mg/dL)
Assay type: functional
reportedMetric: Activity (mg/dL)
One number for each entry, in mg/dL.

- smilesInput: "C=C1CC/C(=C/C=C2\\CCC[C@]3(C)[C@@H]([C@H](C)CCCC(C)(C)O)CC[C@@H]23)C(=C)[C@H]1O"
  Activity, mg/dL: 5.9

Give one value of Activity per listed molecule.
1. C=C1/C(=C\C=C2/CCC[C@]3(C)[C@@H]([C@H](C)CCCC(C)(C)O)CC[C@@H]23)C[C@@H](O)C[C@@H]1O
2. C=C1CC/C(=C/C=C2\CCC[C@]3(C)[C@@H]([C@@H](C)CCCC(C)(C)O)CC[C@@H]23)C(=C)[C@H]1O
3. C=C1CC(=C)[C@H](O)C/C1=C/C=C1\CCC[C@]2(C)[C@@H]([C@H](C)CCCC(C)(C)O)CC[C@@H]12
4. C=C1CC(=C)[C@H](O)C/C1=C/C=C1\CCC[C@]2(C)[C@@H]([C@@H](C)CCCC(C)(C)O)CC[C@@H]12

[7.5, 9.7, 5.4, 7.5]

----------
Test system: HL-60
Experiment: Ratio of 1alpha,25-(OH)2D3 ED50 to compound ED50 for induction of human HL60 cell differentiation by nitro blue tetrazolium reduction assay
Type: functional
reportedMetric: Ratio ED50
Answers are plain numbers.

- compound: "C=C1[C@H](O)CC(=C/C=C2\\CCC[C@]3(C)[C@@H]([C@@H](C)CCCC(C)(C)O)CC[C@@H]23)C[C@H]1O [DP001]"
  systemName: "HL-60"
  Ratio ED50: 25
- compound: "C=C1CC[C@H](O)C/C1=C/C=C1\\CCC[C@]2(C)[C@@H]([C@H](C)CCCC(C)(C)O)CC[C@@H]12 [CALCIFEDIOL ANHYDROUS]"
  systemName: "HL-60"
  Ratio ED50: 0.001
- compound: "C=C1CC/C(=C/C=C2\\CCC[C@]3(C)[C@@H]([C@@H](C)CCCC(C)(C)O)CC[C@@H]23)C[C@H]1O"
  systemName: "HL-60"
  Ratio ED50: 2.5
- compound: "C=C1CC(=C)[C@H](O)C/C1=C/C=C1\\CCC[C@]2(C)[C@@H]([C@H](C)CCCC(C)(C)O)CC[C@@H]12"
  systemName: "HL-60"
  Ratio ED50: 0.005
- compound: "C=C1CC/C(=C/C=C2\\CCC[C@]3(C)[C@@H]([C@H](C)CCCC(C)(C)O)CC[C@@H]23)C(=C)[C@H]1O"
  systemName: "HL-60"
  Ratio ED50: 2
- compound: "C=C1CC(=C)[C@H](O)C/C1=C/C=C1\\CCC[C@]2(C)[C@@H]([C@@H](C)CCCC(C)(C)O)CC[C@@H]12"
  systemName: "HL-60"
  Ratio ED50: 0.22
- compound: "C=C1CC/C(=C/C=C2\\CCC[C@]3(C)[C@@H]([C@@H](C)CCCC(C)(C)O)CC[C@@H]23)C(=C)[C@H]1O"
  systemName: "HL-60"
  Ratio ED50: 4
- compound: "C=C1CC/C(=C\\C=C2/CCC[C@]3(C)[C@@H]([C@@H](C)CCCC(C)(C)O)CC[C@@H]23)C[C@H]1O"
  systemName: "HL-60"
  Ratio ED50: 0.07

Give one value of Ratio ED50 per listed compound.
1. C=C1CC/C(=C/C=C2\CCC[C@]3(C)[C@@H]([C@H](C)CCCC(C)(C)O)CC[C@@H]23)C[C@H]1O
2. C=C1CC/C(=C\C=C2/CCC[C@]3(C)[C@@H]([C@H](C)CCCC(C)(C)O)CC[C@@H]23)C[C@H]1O

1. 2.2
2. 0.01
